Every entry's value here was drawn from patent US6548079B1.

test_method_notes: Solubility of moxifloxacin HCl in the presence of sodium chloride
Type: physicochemical
test_settings: sodium chloride solution, 5 °C, saline or isotonic, thermodynamic from solid, NaCl 0.1 % (w/v)
Description: For a dosage range of from 100 mg to 1000 mg at active compound concentrations of from 0.04% to 0.4% (w/v) of moxifloxacin hydrochloride, it is thus possible to adjust the osmotic pressure to physiological conditions by adding from 0.4% to 0.9% of sodium chloride. […] This ensures that, even on short-term cold storage, there is no precipitation of the active compound as a result of exceeding the saturation solubilities. [table]
Counter-ions that a name gives are not always drawn.
measure: solubility thermodynamic (mg/mL)

>>> measured_result("COc1c(N2C[C@@H]3CCCN[C@@H]3C2)c(F)cc2c(=O)c(C(=O)O)cn(C3CC3)c12 [moxifloxacin HCl]")
11
